The origin of these recorded values is patent US11608374.

# target_entity: T1, human sclerostin (human)
# T1 chain: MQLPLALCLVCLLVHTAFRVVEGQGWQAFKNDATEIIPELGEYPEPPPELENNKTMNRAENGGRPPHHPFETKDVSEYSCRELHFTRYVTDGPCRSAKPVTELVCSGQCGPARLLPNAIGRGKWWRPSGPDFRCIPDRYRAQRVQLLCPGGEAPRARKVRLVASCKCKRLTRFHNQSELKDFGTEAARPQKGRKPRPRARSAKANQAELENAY
# assay_text: SPR, pH 7.4
measurement_kind: koff (s⁻¹)
Give the value, in units of s⁻¹, as a plain number.

The following binders have reported results that may help.
>  <binder>
amH848/abL152 (antibody, V domains shown) VH: EVQLVQSGAEVKKPGASVKVSCKASGYTFTSYNMHWVRQAPGKGLEWMGEIMPHSGRYGLKQKFKGRVTMTRDTSISTAYMELSRLRSDDTAVYYCARLEYSEIYDDWYFDVWGQGTTVTVSS VL: DIQMTQSPSSLSASVGDRVTITCRASEGIHDALAWYQQKPGKAPKLLIYWASTLESGVPSRFSGSGSGTDFTLTISSLQPEDFATYYCQQGDTLPYTFGGGTKVEIK

>  <units>
s⁻¹

>  <koff>
0.00946

$$$$
>  <binder>
bsH638/abL152 (antibody, V domains shown) VH: QVQLVQSGAEVKKPGASVKVSCKVSGYTLTHTFMHWVRQAPGKGLEWMGWSDPEIGDHEYASKFQGRVTMTEDTSTDTAYMELSSLRSEDTAVYYCATGDTTYKFDYWGQGTLVTVSS VL: DIQMTQSPSSLSASVGDRVTITCRASEGIHDALAWYQQKPGKAPKLLIYWASTLESGVPSRFSGSGSGTDFTLTISSLQPEDFATYYCQQGDTLPYTFGGGTKVEIK

>  <units>
s⁻¹

>  <koff>
0.0093

$$$$

Which koff is reported for this binder? amH852/abL152 (antibody, V domains shown) VH: EVQLVQSGAEVKKPGASVKVSCKASGYTFTDYNMHWVRQAPGKGLEWMGEIMPHSGRYGLKQKFKGRVTMTTDTSTSTAYMELRSLRSDDTAVYYCARLEYSEIYDDWYFDVWGQGTTVTVSS VL: DIQMTQSPSSLSASVGDRVTITCRASEGIHDALAWYQQKPGKAPKLLIYWASTLESGVPSRFSGSGSGTDFTLTISSLQPEDFATYYCQQGDTLPYTFGGGTKVEIK
0.00257
